Measured z-score, listed per entry.
# EXPERIMENT: mitochondrial membrane potential change in A549 cells, profiling panel, cell-based, JC-1 fluorescence, basal, 24 h, 100 nL (AID 1138);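 further: A549 lung adenocarcinoma cells under basal conditions with no added stimulus; test concentration not given here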
# MEASUREMENT CONTEXT: higher = more signal
In your answer, state the number alone without any accompanying words.

MOLECULE	z-score
COC(=O)[C@@]1(Cc2ccc(OC)cc2)[C@H]2c3cc(C(=O)N(C)C)n(CCN4CNCC4=O)c3C[C@H]2CN1C(=O)c1ccccc1	1

# z-score of C=CCNC(=O)[C@H]1[C@@H]2C(=O)O[C@@H](c3ccccc3)[C@@H](c3ccccc3)N2[C@@H](c2ccc(OCCO)cc2)[C@]12C(=O)N(C(=O)OCCOC)c1ccccc12 = -0.134

# z-score of CCCCC(O)C1C=CC2C(=O)N(c3ccccc3)C(=O)C2N1Nc1ccccc1F (centres undefined) = 0.354

# z-score of CCCCN1CC=CC23O[C@@H]4C=CCOC(=O)[C@@H]4[C@H]2C(=O)N(CCCCCO)[C@@H]3C1=O (some centres undefined) = -0.478

# z-score of COC(=O)[C@@]1(Cc2ccccc2)[C@H]2c3cc(C(=O)N(C)C)n(CCSCCO)c3C[C@H]2CN1C(=O)c1ccccc1 = 0.599

# z-score of COCCOC(=O)N1C(=O)[C@@]2(c3cc(C#Cc4ccc(OC)cc4)ccc31)[C@H](c1ccccc1OCCO)N1[C@H](c3ccccc3)[C@H](c3ccccc3)OC(=O)[C@H]1[C@@H]2C(=O)N1CCN(c2ncccn2)CC1 = -1.18

# z-score of O=C1O[C@@H](c2ccccc2)[C@@H](c2ccccc2)N2[C@@H](c3ccc(OCCO)cc3)[C@]3(C(=O)Nc4ccccc43)[C@@H](C(=O)NC[C@H](O)c3ccccc3)[C@H]12 = -0.575

# z-score of CN1C(=O)C2C=CC(C(O)c3ccc(I)cc3)N(N3CCCCC3)C2C1=O (centres undefined) = 0.158

# z-score of COc1ccc(C(=O)Nc2ccc(CN3C(=O)[C@@]4(O[C@@H](CC(=O)N5CCC[C@H]5CO)[C@H]([Si](C)(C)c5ccc(OC)cc5)[C@H]4C)c4ccccc43)cc2)cc1 = 3.25

# z-score of CCOc1cc(C(O)C2C=CC3C(=O)N(c4ccccc4)C(=O)C3N2Nc2ccccc2)ccc1O (centres undefined) = -0.0767

# z-score of COc1ccc(COC2OC[C@]3(C)[C@H]4C5=C(CN3C(=O)OC(C)(C)C)[C@H](C)C(CO)C(CO)C5CC[C@@H]24)cc1 (some centres undefined) = 0.323

# z-score of O=C1C2C=CC(C(O)C(c3ccccc3)c3ccccc3)N(n3cnnc3)C2C(=O)N1Cc1ccccc1 (centres undefined) = -0.806

# z-score of COc1ccc(CCNC(=O)[C@@]2(C)c3ccccc3C(=O)N(Cc3cc(F)cc(C(F)(F)F)c3)[C@H]2c2ccc(CO)cc2)cc1 = -0.233

# z-score of C=CC[C@@]1(C(=O)NCc2ccccc2)N=C(c2ccc(OCCCO)cc2)O[C@@H]1c1ccccc1N=[N+]=[N-] = 0.444

###

# EXPERIMENT: small-molecule microarray binders of probe aNog, primary screen, biochemical, biotinylated probe, 635/667 nm fluorescence (AID 1115);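 further: probe is biotinylated aNog protein used at 0.15 µg/mL for 1 h at 4 C; z-score combines 667 nm fluorescence of each spot with its signal to noise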
# MEASUREMENT CONTEXT: higher = more signal
Measured composite z-score, listed per entry.

MOLECULE	composite z-score
[N-]=[N+]=NCc1ccccc1[C@@H]1OC(c2ccc(OCCCO)cc2)=N[C@]1(CCS(=O)(=O)c1ccccc1)C(=O)NCCN1CCOCC1	1.17
C=CCOC(=O)[C@H]1[C@@H]2C(=O)O[C@@H](c3ccccc3)[C@@H](c3ccccc3)N2[C@@H](c2ccc(OCCOC(=O)[C@H]3C[C@H]4C(=O)N[C@@H](CC(C)C)C(=O)N4[C@H]3c3ccc(O)cc3)cc2)[C@]12C(=O)Nc1ccc(I)cc12	0.13

# composite z-score of CC(C)N1C(=O)c2ccccc2[C@](C)(C(=O)NCc2ccccc2)[C@@H]1c1ccc(CO)cc1 = -0.141

# composite z-score of CCC(CC)C(O)C1C=CC2C(=O)N(C)C(=O)C2N1Nc1ccccc1 (configuration not stated) = 1.09

# composite z-score of CCN(CC)c1ccc(N2CC=CC34O[C@@H]5/C=C\CCC(C)OC(=O)C5[C@H]3C(=O)N(C(CO)C(C)C)[C@@H]4C2=O)cc1 (some centres not stated) = -0.287

# composite z-score of O=C1C2C=CC(C(O)C(c3ccccc3)c3ccccc3)N(n3cnnc3)C2C(=O)N1Cc1ccccc1 (configuration not stated) = 0.976

# composite z-score of COC(=O)[C@@]1(Cc2ccc(F)cc2)[C@H]2c3cc(C(=O)N(C)C)n(Cc4ccc(S(C)(=O)=O)cc4)c3C[C@H]2CN1C(=O)c1ccccc1 = 1.84

###

Measured z-score, listed per entry.
# EXPERIMENT: basal S. cerevisiae growth modulation, no modifier, primary screen, OD600, strain BY4716, 24 h, basal condition (AID 1173)
# MEASUREMENT CONTEXT: OD600, 24 h, higher = more signal, called active from +8 up or from −8 down
In your answer, state the number alone without any accompanying words.

See these solved cases before continuing.
MOLECULE	READOUT NUMBER
COc1ccc(C(O)C2C=CC3C(=O)N(c4ccccc4)C(=O)C3N2Nc2ccccc2F)cc1OCc1ccccc1 (centres undefined)	-0.737
O=C1NC(=O)C2C1C=CC(C(O)C(c1ccccc1)c1ccccc1)N2Nc1ccc(Cl)cc1Cl (centres undefined)	-2.63
[N-]=[N+]=NCc1ccccc1[C@@H]1OC(c2ccc(OCCCO)cc2)=N[C@]1(Cc1ccccc1N=[N+]=[N-])C(=O)N1CCOCC1	-0.532

# evaluate next
# z-score of [N-]=[N+]=NCc1ccccc1C[C@@]1(C(=O)NCC(O)CO)N=C(c2ccc(OCCCO)cc2)O[C@@H]1c1ccccc1N=[N+]=[N-] (some centres undefined) = -0.927

###

# STUDY TARGET: Neurogenic locus notch homolog protein 3 (Homo sapiens) (UniProt Q9UM47)
# Sequence (Q9UM47 whole entry, looked up): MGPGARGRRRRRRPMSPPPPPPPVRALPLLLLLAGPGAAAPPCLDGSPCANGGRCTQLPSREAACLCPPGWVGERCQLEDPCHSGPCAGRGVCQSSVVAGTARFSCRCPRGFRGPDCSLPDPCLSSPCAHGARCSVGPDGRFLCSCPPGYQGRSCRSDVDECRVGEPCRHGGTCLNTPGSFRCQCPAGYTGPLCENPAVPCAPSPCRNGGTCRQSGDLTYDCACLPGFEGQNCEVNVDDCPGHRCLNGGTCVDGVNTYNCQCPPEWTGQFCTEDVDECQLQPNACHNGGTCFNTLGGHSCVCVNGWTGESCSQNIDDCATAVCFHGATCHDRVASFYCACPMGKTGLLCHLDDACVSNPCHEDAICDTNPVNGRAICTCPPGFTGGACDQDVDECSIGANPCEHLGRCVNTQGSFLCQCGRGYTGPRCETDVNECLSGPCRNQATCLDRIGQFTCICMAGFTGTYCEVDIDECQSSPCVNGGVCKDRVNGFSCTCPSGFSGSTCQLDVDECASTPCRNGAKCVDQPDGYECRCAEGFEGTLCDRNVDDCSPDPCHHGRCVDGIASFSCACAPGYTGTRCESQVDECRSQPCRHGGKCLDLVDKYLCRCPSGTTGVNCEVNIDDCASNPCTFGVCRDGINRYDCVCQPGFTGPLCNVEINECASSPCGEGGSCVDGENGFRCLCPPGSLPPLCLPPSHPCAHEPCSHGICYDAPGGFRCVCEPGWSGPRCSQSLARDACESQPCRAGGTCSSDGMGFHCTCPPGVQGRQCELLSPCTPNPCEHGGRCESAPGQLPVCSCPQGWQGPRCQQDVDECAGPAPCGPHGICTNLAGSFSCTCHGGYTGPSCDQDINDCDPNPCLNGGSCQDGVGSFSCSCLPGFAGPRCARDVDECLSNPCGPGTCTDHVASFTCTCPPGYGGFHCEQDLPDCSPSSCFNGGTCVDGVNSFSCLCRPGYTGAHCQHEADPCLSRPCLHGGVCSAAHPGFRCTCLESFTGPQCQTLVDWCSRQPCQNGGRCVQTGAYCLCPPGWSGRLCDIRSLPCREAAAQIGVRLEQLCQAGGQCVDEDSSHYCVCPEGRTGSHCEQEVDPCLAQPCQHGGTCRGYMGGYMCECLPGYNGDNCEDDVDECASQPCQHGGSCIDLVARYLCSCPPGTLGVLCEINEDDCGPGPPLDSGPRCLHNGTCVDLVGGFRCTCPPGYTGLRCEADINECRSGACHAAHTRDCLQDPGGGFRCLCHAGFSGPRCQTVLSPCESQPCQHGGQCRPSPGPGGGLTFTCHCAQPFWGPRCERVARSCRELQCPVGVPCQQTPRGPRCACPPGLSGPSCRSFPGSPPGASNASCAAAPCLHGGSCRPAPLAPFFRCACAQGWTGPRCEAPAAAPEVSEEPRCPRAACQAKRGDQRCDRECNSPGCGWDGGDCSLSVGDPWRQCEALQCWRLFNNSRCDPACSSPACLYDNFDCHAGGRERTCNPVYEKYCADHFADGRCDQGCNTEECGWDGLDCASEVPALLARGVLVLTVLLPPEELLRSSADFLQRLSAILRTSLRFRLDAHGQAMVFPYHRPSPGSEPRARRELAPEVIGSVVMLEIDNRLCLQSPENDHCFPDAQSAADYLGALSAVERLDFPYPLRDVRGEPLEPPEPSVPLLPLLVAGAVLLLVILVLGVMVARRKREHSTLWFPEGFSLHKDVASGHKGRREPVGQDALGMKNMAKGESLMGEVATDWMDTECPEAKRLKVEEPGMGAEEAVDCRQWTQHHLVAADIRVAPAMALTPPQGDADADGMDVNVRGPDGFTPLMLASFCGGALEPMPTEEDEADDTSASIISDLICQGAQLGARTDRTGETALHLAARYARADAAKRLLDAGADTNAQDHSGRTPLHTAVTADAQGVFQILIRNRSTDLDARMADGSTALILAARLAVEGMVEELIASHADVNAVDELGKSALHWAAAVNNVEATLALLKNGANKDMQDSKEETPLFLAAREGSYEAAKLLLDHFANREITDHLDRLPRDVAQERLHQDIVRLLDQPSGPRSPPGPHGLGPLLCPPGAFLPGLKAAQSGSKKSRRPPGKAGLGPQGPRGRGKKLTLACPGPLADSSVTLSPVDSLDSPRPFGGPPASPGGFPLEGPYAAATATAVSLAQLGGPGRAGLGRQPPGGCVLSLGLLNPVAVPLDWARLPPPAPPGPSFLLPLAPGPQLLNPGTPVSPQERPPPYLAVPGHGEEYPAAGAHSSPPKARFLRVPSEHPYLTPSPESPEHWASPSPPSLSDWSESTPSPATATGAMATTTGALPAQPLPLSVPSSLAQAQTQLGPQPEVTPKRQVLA
# EXPERIMENT: NOTCH3 binders on small-molecule microarray, primary screen, biochemical, 635/667 nm fluorescence (AID 1096)
# MEASUREMENT CONTEXT: NOTCH3 binding, 635 nm fluorescence, higher = more signal
Classification by composite z-score follows these ranges: low interval (below 0.4), middle interval (0.4 to below 0.9), high interval (0.9 or more)

COMPOUND	CLASS NAME
O=C1OCC=C[C@H]2OC34C=CCN(CCN5CCOCC5)C(=O)[C@H]3N(CCCO)C(=O)[C@@H]4[C@@H]12 (stereo partly drawn)	low interval
[N-]=[N+]=Nc1ccccc1C[C@]1(C(=O)NCC(O)CO)N=C(c2ccc(OCCCO)cc2)O[C@H]1c1ccccc1N=[N+]=[N-] (stereo partly drawn)	low interval
C=CCOC(=O)[C@@H]1[C@H]2C(=O)O[C@H](c3ccccc3)[C@H](c3ccccc3)N2[C@H](c2ccc(OCCOC(=O)[C@@H]3C[C@@H]4C(=O)N5CCC[C@H]5C(=O)N4[C@@H]3c3ccc(O)cc3)cc2)[C@@]12C(=O)Nc1ccc(I)cc12	middle interval
COC(=O)[C@@]1(Cc2ccc(F)cc2)[C@H]2c3cc(C(=O)N(C)C)n(Cc4nc5ccccc5[nH]4)c3C[C@H]2CN1C(=O)c1ccccc1	high interval
Cc1ccc(S[C@]2(C(=O)NCC(F)(F)F)CC(=O)N(C(C)C)[C@@H]2c2ccc(CO)cc2I)cc1	low interval

*Q* Bin? O=C(NCc1ccccc1)[C@@H]1c2ccccc2C(=O)N(CC23CC4CC(CC(C4)C2)C3)[C@H]1c1ccc(CO)cc1
*A* high interval

*Q* Bin? C=CC[C@]1(C(=O)N2CCCCC2)N=C(c2ccc(OCCCO)cc2)O[C@H]1c1ccccc1
*A* low interval

*Q* Bin? COC(=O)[C@@]1(Cc2ccc(OC)cc2)[C@H]2c3cc(C(=O)N(C)C)n(CCN4CNCC4=O)c3C[C@H]2CN1C(=O)c1ccccc1
*A* low interval

*Q* Bin? [N-]=[N+]=NCc1ccccc1C[C@@]1(C(=O)NCC(O)CO)N=C(c2ccc(OCCCO)cc2)O[C@@H]1c1ccccc1N=[N+]=[N-] (stereo partly drawn)
*A* middle interval

###

Measured z-score, listed per entry.
# EXPERIMENT: E. coli acrAB mutant growth effects, primary screen, E. coli filamentation inducers, strain DRC39, OD650, 48 h (AID 1179);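 further: screen aims at cell division blockers that make cells filament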
# MEASUREMENT CONTEXT: E. coli DRC39 delta-acrAB growth, higher = more signal, called active from +8 up or from −8 down
In your answer, state the number alone without any accompanying words.

See these solved cases before continuing.
MOLECULE	ASSAY METRIC	READOUT NUMBER
CN(C)CCCNC(=O)[C@@]1(c2ccc([N+](=O)[O-])cc2)CC(=O)N(C2CCCCC2)[C@@H]1c1ccc(CO)cc1	z-score	-0.16
COc1ccc([Si](C)(C)[C@@H]2[C@@H](CC(=O)N3Cc4ccccc4C[C@H]3CO)O[C@]3(C(=O)N(C)c4c(Br)cc(C)cc43)[C@H]2C)cc1	z-score	1.01
C#CCNC(=O)[C@H](Cc1ccccc1)NC(=O)CCC(=O)O	z-score	-0.125
O=C1O[C@H](c2ccccc2)[C@H](c2ccccc2)N2[C@H]1[C@@H](C(=O)NC[C@H](O)c1ccccc1)[C@]1(C(=O)Nc3ccccc31)[C@H]2c1ccc(OCCO)cc1	z-score	0.0403

# evaluate next
# z-score of CC(=O)NCCCC[C@@H]1NC(=O)[C@@H]2C[C@H](C(=O)NCCCCCCNC(=O)CS)[C@H](c3cccc(OCCO)c3)N2C1=O = 0.367
